Overview of reported inhibition at 1 µM across a group of compounds:
TESTED_TARGET: UniProtKB Q14524
ASSAY_TEXT: Late INa screening assay (whole cell patch clamp, QPatch, Tefluthrin-induced late current)
Assay type: cell-based
PROTOCOL_CONDITIONS: HEK293, % inhibition (percent block of late INa) at 1 uM; HEK293 hNaV1.5; 10 μM Tefluthrin; read-out: Nav1.5 Late INa 1 uM
// note: answer is a bare numeric in %

// worked examples, inhibition at 1 µM included
INSERT INTO measurements (compound, tested_target, obs_value) VALUES
  ('Cc1cnc(CN2Cc3cc(-c4ccc(C(F)(F)F)cc4F)ccc3OC2=O)nc1', 'UniProtKB Q14524', 45.7),
  ('CC1c2cc(-c3cccc(Oc4ccccc4)c3)ccc2OC(=O)N1Cc1ncccn1 (stereo not drawn)', 'UniProtKB Q14524', 41.6),
  ('CC1c2cc(-c3ccc(Cl)c(F)c3)ccc2OC(=O)N1Cc1ncccn1 (stereo not drawn)', 'UniProtKB Q14524', 32.5),
  ('O=C1Oc2ccc(-c3ccc(C(F)(F)F)cc3)cc2CN1CCc1ncccn1', 'UniProtKB Q14524', 45),
  ('COc1cc(C(F)(F)F)ccc1-c1ccc2c(c1)CN(Cc1ncccn1)C(=O)O2', 'UniProtKB Q14524', 44.6),
  ('COc1cc(OC(F)(F)F)ccc1-c1ccc2c(c1)CN(Cc1ccccn1)C(=O)O2', 'UniProtKB Q14524', 48.3),
  ('Cc1nccc(CN2Cc3cc(-c4ccc(OC(F)(F)F)cc4)ccc3OC2=O)n1', 'UniProtKB Q14524', 30),
  ('COc1cc(OC(F)(F)F)ccc1-c1ccc2c(c1)CN(CCc1ncccn1)C(=O)O2', 'UniProtKB Q14524', 31.4),
  ('Cc1csc(CN2Cc3cc(-c4ccc(Cl)c(F)c4)ccc3OC2=O)n1', 'UniProtKB Q14524', 50.3),
  ('O=C1Oc2ccc(-c3ccc(OC(F)(F)F)c(F)c3)cc2CN1Cc1ncccn1', 'UniProtKB Q14524', 57.2);

Prompt: Which measured inhibition at 1 µM value corresponds to `CC(C)Oc1cc(OC(F)(F)F)ccc1-c1ccc2c(c1)CN(Cc1ncccn1)C(=O)O2` ?
Response: 33.7

Prompt: Please answer likewise for `CC(C)Oc1cc(C(F)(F)F)ccc1-c1ccc2c(c1)CN(Cc1ncccn1)C(=O)O2`
Response: 54

Prompt: Please answer likewise for `O=C1Oc2ccc(-c3ccc(OC(F)(F)F)cc3F)cc2CN1Cc1ncccn1`
Response: 42.3

Prompt: Please answer likewise for `O=C1Oc2ccc(-c3ccc(OC(F)(F)F)cc3)cc2CN1CCc1ncccn1`
Response: 48.5

Prompt: Please answer likewise for `O=C1Oc2ccc(-c3ccc(OC(F)(F)F)cc3)cc2CN1Cc1ccccn1`
Response: 53.7

Prompt: Please answer likewise for `O=C1Oc2ccc(-c3ccc(C4(C(F)(F)F)CC4)cc3)cc2CN1Cc1ncccn1`
Response: 54.2

Prompt: Please answer likewise for `O=C1Oc2ccc(-c3ccc(OC(F)(F)F)cc3)cc2CN1Cc1ncccn1`
Response: 51.8

Prompt: Please answer likewise for `O=C1Oc2ccc(-c3ccc(Cl)c(F)c3)cc2CN1Cc1ncccn1`
Response: 43.3

* * *

TESTED_TARGET: hNaV1.1 (SCN1A) (Homo sapiens)
ASSAY_TEXT: Use-dependent inhibition of the CNS NaV1.1 sodium channel
Format: cell-based
PROTOCOL_CONDITIONS: % inhibition, use-dependent block at 1 uM; 25 Hz; read-out: Nav1.1 UDB 25 Hz 1 uM
Label NOT MET if inhibition at 1 µM falls below 20%; label MET in every other case.

INSERT INTO assay_data (molecule, tested_target, assigned_class) VALUES
  ('CC1c2cc(-c3ccc(C(F)(F)F)cc3)ccc2OC(=O)N1Cc1ncccn1 (centres unmarked) [Example 49]', 'hNaV1.1 (SCN1A) (Homo sapiens)', 'MET'),
  ('COc1cc(OC(F)(F)F)ccc1-c1ccc2c(c1)CN(CCc1ncccn1)C(=O)O2 [Example 18]', 'hNaV1.1 (SCN1A) (Homo sapiens)', 'NOT MET');

Prompt: # bool: inhibition at 1 µM of O=C1Oc2ccc(-c3ccc(C(F)(F)F)cc3)cc2CN1CCc1ncccn1 [Example 17] >= 20%
Response: MET

Prompt: Please answer likewise for COc1cc(C(F)(F)F)ccc1-c1ccc2c(c1)CN(Cc1cccc(C)n1)C(=O)O2 [Example 44]
Response: MET

Prompt: Please answer likewise for CCCOc1cc(C(F)(F)F)ccc1-c1ccc2c(c1)CN(CCc1ncccn1)C(=O)O2 [Example 19]
Response: MET

Prompt: Please answer likewise for COc1cc(OC(F)(F)F)ccc1-c1ccc2c(c1)CN(Cc1ncccn1)C(=O)O2 [Example 9]
Response: NOT MET

Prompt: Please answer likewise for O=C1Oc2ccc(-c3ccc(OC(F)(F)F)cc3F)cc2CN1Cc1ccccn1 [Example 21]
Response: NOT MET

* * *

TESTED_TARGET: wild-type human cardiac sodium channel, hNaV 1.5 (Peak INa) (Homo sapiens, UniProt Q14524)
Sequence (Q14524 whole entry): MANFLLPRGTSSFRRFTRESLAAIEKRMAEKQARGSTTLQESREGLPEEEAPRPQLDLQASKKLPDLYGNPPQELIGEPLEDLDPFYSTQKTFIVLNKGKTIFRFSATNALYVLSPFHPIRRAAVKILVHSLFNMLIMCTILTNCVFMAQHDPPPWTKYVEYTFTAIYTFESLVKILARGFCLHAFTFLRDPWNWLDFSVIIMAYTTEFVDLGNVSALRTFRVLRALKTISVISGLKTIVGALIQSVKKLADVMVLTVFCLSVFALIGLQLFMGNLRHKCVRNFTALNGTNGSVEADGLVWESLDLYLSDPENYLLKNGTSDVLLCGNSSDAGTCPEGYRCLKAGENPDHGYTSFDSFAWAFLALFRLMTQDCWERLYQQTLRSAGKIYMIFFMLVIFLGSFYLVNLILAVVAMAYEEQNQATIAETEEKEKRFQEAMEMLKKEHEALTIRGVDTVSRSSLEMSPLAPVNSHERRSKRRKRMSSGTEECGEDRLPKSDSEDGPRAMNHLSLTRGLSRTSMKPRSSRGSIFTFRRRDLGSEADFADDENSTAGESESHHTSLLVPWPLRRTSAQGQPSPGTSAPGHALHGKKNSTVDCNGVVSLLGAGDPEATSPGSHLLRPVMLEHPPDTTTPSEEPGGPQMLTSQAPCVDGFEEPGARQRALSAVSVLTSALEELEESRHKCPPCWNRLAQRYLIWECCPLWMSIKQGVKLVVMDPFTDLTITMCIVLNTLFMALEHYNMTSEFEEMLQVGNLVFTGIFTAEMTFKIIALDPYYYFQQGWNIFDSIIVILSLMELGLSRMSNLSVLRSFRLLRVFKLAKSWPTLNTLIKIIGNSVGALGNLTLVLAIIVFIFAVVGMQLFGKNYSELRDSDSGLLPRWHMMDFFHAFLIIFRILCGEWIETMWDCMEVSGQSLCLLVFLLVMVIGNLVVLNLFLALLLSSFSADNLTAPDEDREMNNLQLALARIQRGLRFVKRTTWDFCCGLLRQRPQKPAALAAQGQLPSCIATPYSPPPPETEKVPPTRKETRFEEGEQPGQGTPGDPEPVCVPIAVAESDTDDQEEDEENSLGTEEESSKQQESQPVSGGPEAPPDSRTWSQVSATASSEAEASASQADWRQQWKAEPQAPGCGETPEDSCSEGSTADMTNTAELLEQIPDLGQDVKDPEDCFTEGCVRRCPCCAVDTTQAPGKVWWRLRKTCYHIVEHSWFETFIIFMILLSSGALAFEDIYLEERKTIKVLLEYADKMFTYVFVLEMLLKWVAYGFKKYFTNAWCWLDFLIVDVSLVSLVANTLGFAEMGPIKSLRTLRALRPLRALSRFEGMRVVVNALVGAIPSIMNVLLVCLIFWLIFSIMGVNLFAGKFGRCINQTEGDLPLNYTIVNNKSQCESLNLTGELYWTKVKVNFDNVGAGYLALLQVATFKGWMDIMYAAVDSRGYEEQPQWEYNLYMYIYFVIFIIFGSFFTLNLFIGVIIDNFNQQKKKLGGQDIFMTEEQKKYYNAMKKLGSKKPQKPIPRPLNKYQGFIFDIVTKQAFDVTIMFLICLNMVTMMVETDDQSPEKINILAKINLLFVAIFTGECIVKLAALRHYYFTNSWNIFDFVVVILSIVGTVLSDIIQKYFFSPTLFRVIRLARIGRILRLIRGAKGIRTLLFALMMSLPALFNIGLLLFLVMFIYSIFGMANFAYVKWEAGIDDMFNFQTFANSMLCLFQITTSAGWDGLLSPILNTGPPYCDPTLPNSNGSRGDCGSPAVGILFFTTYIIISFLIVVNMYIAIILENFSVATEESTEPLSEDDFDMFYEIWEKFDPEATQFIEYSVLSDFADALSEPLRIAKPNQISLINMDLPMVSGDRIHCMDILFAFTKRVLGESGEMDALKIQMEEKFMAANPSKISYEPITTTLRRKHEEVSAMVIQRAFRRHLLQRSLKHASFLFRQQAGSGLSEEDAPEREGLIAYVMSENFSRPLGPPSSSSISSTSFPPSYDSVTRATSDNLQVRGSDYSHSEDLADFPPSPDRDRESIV
ASSAY_TEXT: Peak INa screening assay (tonic block and use-dependent block)
Type: cell-based
PROTOCOL_CONDITIONS: read-out: Nav1.5 Peak TB 3 uM, % inhibition, tonic block of peak INa at 3 uM; 0.1 Hz; holding -100 mV
REPORTED_METRIC: inhibition at 3 µM (%)
// note: answer is a bare numeric in %

INSERT INTO measurements (molecule, tested_target, reported_metric, obs_value) VALUES
  ('O=C1Oc2ccc(-c3ccc(C4(C(F)(F)F)CC4)cc3)cc2CN1Cc1ncccn1', 'wild-type human cardiac sodium channel, hNaV 1.5 (Peak INa) (Homo sapiens, UniProt Q14524)', 'inhibition at 3 µM', 55.6),
  ('Cc1csc(CN2Cc3cc(-c4ccc(Cl)c(F)c4)ccc3OC2=O)n1', 'wild-type human cardiac sodium channel, hNaV 1.5 (Peak INa) (Homo sapiens, UniProt Q14524)', 'inhibition at 3 µM', 13),
  ('Cc1cc(OC(F)(F)F)ccc1-c1ccc2c(c1)CN(Cc1ncccn1)C(=O)O2', 'wild-type human cardiac sodium channel, hNaV 1.5 (Peak INa) (Homo sapiens, UniProt Q14524)', 'inhibition at 3 µM', 12.5);

Prompt: Which measured inhibition at 3 µM value corresponds to `COc1cc(OC(F)(F)F)ccc1-c1ccc2c(c1)CN(Cc1ncccn1)C(=O)O2` ?
Response: 26.7

Prompt: Please answer likewise for `Cc1cccc(CN2Cc3cc(-c4ccc(C(F)(F)F)cc4F)ccc3OC2=O)n1`
Response: 33.5

* * *

TESTED_TARGET: hNaV1.2 (SCN2A) (Homo sapiens)
Construct: expressed in transfected cells
Sequence (Q99250 whole entry): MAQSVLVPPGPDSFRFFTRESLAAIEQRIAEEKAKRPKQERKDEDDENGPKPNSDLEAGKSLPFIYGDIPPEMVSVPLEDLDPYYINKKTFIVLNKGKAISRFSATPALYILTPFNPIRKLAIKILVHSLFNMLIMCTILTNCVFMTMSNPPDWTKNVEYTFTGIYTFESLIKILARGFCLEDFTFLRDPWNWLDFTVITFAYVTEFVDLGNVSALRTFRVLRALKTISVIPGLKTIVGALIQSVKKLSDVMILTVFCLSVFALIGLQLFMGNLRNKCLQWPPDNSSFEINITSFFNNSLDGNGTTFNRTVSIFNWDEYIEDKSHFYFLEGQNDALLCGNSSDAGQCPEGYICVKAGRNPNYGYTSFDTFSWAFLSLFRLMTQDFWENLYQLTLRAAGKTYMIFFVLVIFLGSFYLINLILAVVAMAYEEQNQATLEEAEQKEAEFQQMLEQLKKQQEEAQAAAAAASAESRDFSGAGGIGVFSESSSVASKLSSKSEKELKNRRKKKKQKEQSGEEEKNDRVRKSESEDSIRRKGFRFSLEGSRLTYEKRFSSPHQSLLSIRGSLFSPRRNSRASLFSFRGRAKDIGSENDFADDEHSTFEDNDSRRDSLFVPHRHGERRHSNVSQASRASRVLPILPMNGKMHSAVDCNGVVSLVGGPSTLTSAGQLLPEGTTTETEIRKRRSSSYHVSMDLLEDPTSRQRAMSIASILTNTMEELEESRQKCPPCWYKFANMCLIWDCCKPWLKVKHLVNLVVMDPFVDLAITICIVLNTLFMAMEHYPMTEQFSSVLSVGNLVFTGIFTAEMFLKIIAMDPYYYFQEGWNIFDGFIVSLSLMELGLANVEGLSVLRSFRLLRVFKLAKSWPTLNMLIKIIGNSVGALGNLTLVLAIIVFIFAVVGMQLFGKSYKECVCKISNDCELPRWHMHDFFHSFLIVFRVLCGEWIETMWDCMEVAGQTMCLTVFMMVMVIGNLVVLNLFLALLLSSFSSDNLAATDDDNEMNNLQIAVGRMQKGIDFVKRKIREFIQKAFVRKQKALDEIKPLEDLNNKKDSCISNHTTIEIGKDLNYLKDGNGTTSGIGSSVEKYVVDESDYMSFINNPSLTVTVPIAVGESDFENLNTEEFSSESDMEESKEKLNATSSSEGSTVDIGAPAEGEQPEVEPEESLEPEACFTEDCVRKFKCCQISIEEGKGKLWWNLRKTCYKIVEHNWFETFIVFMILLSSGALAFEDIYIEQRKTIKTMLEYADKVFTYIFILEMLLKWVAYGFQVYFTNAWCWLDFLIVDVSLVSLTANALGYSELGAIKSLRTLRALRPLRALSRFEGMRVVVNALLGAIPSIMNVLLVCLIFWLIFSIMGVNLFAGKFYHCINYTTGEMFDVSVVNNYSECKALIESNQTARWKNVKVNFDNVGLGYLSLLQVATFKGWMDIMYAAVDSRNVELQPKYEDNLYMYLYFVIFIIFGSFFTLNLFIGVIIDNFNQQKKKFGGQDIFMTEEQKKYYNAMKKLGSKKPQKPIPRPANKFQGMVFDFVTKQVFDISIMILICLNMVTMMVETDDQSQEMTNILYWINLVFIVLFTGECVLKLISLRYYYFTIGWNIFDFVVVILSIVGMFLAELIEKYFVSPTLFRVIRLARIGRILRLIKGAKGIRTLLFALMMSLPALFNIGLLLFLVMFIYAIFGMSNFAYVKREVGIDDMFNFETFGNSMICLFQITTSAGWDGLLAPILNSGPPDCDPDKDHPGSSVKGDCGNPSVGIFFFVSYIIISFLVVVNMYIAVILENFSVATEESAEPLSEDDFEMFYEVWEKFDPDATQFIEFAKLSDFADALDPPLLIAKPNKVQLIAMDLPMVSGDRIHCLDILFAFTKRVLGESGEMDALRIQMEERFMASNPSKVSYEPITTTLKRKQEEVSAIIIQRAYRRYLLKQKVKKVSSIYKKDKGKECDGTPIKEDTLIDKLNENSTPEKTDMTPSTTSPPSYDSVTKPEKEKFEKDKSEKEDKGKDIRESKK
Sequence (Q07699 19-218 partner): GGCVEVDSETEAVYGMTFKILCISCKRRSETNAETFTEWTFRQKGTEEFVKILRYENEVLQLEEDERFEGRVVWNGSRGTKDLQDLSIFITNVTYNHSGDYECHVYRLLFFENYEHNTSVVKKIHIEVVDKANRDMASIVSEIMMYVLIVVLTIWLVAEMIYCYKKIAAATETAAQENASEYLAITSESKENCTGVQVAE
Sequence (O60939 30-215 partner): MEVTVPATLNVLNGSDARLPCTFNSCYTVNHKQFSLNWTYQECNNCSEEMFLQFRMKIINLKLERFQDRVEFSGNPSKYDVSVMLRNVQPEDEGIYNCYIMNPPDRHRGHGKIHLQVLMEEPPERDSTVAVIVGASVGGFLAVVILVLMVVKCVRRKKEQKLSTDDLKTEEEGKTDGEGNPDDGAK
ASSAY_TEXT: Use-dependent inhibition of the CNS NaV1.2 sodium channel
Assay type: cell-based
PROTOCOL_CONDITIONS: HEK-293; % inhibition, use-dependent block at 1 uM; 25 Hz; read-out: Nav1.2 UDB 25 Hz 1 uM
REPORTED_METRIC: inhibition at 1 µM (%)
// note: answer is a bare numeric in %

// worked examples, inhibition at 1 µM included
INSERT INTO measurements (molecule, result_unit, obs_value) VALUES
  ('Cc1csc(CN2Cc3cc(-c4ccc(OC(F)(F)F)cc4Cl)ccc3OC2=O)n1', '%', 12.8),
  ('Cc1cccc(CN2Cc3cc(-c4ccc(OC(F)(F)F)cc4F)ccc3OC2=O)n1', '%', 14.1);

Prompt: Which measured inhibition at 1 µM value corresponds to `COc1cc(C(F)(F)F)ccc1-c1ccc2c(c1)CN(Cc1ncccn1)C(=O)O2` ?
Response: 38.8

* * *

TESTED_TARGET: hNaV1.1 (SCN1A) (Homo sapiens)
ASSAY_TEXT: Use-dependent inhibition of the CNS NaV1.1 sodium channel
Type: cell-based
PROTOCOL_CONDITIONS: % inhibition, use-dependent block at 10 uM; 25 Hz; read-out: Nav1.1 UDB 25 Hz 10 uM
REPORTED_METRIC: inhibition at 10 µM

INSERT INTO assay_data (molecule, tested_target, obs_value) VALUES
  ('Cc1cnc(CN2Cc3cc(-c4ccc(C(F)(F)F)cc4F)ccc3OC2=O)nc1', 'hNaV1.1 (SCN1A) (Homo sapiens)', '29%'),
  ('Cc1ccnc(CN2Cc3cc(-c4ccc(OC(F)(F)F)cc4F)ccc3OC2=O)n1', 'hNaV1.1 (SCN1A) (Homo sapiens)', '61.8%'),
  ('O=C1Oc2ccc(-c3ccc(C(F)(F)F)cc3F)cc2CN1Cc1ncccn1', 'hNaV1.1 (SCN1A) (Homo sapiens)', '68.7%'),
  ('CCCOc1cc(C(F)(F)F)ccc1-c1ccc2c(c1)CN(Cc1ncccn1)C(=O)O2', 'hNaV1.1 (SCN1A) (Homo sapiens)', '77.5%');

Please examine the following record next.
Prompt: Which measured inhibition at 10 µM value corresponds to `CC(C)Oc1cc(C(F)(F)F)ccc1-c1ccc2c(c1)CN(Cc1ncccn1)C(=O)O2` ?
Response: 75.3%
